For each entry below, report its log10 of EC50 value.
# measured.target: hTLR7 (Homo sapiens, UniProt Q9NYK1)
# Sequence (Q9NYK1 27-1049): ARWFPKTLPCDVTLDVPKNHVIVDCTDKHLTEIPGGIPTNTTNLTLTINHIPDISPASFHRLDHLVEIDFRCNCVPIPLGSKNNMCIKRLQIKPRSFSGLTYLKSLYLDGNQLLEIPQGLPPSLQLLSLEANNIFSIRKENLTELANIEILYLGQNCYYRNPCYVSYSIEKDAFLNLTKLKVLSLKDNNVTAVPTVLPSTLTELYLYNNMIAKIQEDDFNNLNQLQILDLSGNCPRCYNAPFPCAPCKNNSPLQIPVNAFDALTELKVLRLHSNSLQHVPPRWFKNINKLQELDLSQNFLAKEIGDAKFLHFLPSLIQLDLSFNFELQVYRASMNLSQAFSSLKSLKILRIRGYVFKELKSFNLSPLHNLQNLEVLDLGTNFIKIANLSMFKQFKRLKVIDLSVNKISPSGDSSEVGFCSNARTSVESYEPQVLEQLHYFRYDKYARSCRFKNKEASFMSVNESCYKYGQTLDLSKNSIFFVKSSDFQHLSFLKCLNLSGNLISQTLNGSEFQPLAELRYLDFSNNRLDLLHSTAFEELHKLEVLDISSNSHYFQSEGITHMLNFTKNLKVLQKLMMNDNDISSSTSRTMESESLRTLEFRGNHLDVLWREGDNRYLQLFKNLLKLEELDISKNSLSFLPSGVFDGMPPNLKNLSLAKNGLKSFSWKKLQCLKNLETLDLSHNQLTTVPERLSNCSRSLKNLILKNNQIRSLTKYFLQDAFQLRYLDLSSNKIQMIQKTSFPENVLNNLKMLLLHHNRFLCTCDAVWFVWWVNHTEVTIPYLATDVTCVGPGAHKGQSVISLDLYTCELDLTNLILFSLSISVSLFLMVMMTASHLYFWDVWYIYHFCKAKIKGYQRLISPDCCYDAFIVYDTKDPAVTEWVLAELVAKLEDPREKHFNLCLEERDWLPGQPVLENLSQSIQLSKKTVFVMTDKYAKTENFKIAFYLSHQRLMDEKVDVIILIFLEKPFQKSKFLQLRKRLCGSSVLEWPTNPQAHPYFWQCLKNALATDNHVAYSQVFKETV
# method: Human TLR7 Reporter Assay
# condition.description: HEK-Blue hTLR7 cells, 16 hours, normalized to CL097 (6 μM) and DMSO
The common logarithm of EC50 in nM is what is listed.

Record excerpt, results attached:
{"compound": "CCCCNc1nc(N)nc2cn(Cc3ccc(C4CNCCN4)cc3OC)nc12 (stereo not shown)", "log10 of EC50": 3.17}
{"compound": "CCCCNc1nc(N)nc2cn(Cc3cncn3C)nc12", "log10 of EC50": 3.06}
{"compound": "CCCCNc1nc(N)nc2cn(Cc3ccc4c(c3)CCC4N)nc12 (stereo not shown) [Compound 235]", "log10 of EC50": 2.56}
{"compound": "CCCCNc1nc(N)nc2cn(Cc3c(OC)cc(CN4C(=O)C=CC4=O)cc3OC)nc12", "log10 of EC50": 1.99}
{"compound": "CCCCNc1nc(N)nc2cn(Cc3ncc(CN4C(=O)C=CC4=O)cc3OC)nc12", "log10 of EC50": 2.74}
{"compound": "CCCCNc1nc(N)nc2cn(Cc3ccccc3Cl)nc12", "log10 of EC50": 2.76}
{"compound": "CCCCNc1nc(N)nc2cn(Cc3ccncc3OC)nc12", "log10 of EC50": 2.08}
{"compound": "CCCCNc1nc(N)nc2cn(Cc3ccc(NCCCN)cn3)nc12", "log10 of EC50": 2.23}
{"compound": "CCCCNc1nc(N)nc2cn(Cc3ccc(C4CCCN4)cc3)nc12 (stereo not shown) [Compound 205]", "log10 of EC50": 2.61}
{"compound": "CCCCNc1nc(N)nc2cnn(Cc3c(OC)cc(CN4CCNCC4)cc3OC)c12", "log10 of EC50": 1.71}

Here are 8 compounds. What values of log10 of EC50 were reported for them?
1. CCCCNc1nc(N)nc2cn(Cc3ccc4c(c3)CCC4N)nc12 (stereo not shown) [Compound 238]
2. CCCCNc1nc(N)nc2cn(Cc3ccc(C(N)CCN)cc3OC)nc12 (stereo not shown) [Compound 228]
3. CCCCNc1nc(N)nc2cn(Cc3c(OC)cc(C(C)N)cc3OC)nc12 (stereo not shown) [Compound 214]
4. CCCCNc1nc(N)nc2cn(Cc3cc(CN)ccc3OC)nc12
5. CCC[C@@H](CO)Nc1nc(N)nc2cn(Cc3ncc(CNC)cc3OC)nc12
6. C=CCN(C)Cc1cc(OC)c(Cn2cc3nc(N)nc(N[C@@H](C)CCC)c3n2)c(OC)c1
7. CCCCNc1nc(N)nc2cn(Cc3ccnn3CC)nc12
8. CCCCNc1nc(N)nc2cn(Cc3cc(CN4CCN(C(=O)C5CCC(CN6C(=O)C=CC6=O)CC5)CC4)ccc3OC)nc12 (stereo not shown)

stdout:
1: 2.40; 2: 3.37; 3: 2.72; 4: 2.80; 5: 3.20; 6: 1.49; 7: 2.83; 8: 2.43
